Below is a list of entries, each paired with its recorded shrunken log2 fold change value.
System: Escherichia coli TOP10;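 further: peptides expressed intracellularly from a pBAD plasmid library in pooled LB shake-flask culture, induced with 0.3% L-arabinose, DNA abundance read by NGS, three biological replicates, DESeq2 with apeglm shrinkage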
EXPERIMENTAL_DETAILS: shrunken log2 fold change of peptide-encoding DNA abundance (4.5 h post-induction vs induction); higher = less antimicrobial activity (less host growth inhibition)
MEASUREMENT_SETUP: time post-induction: 4.5 h; library: site-saturation at positions 5, 18, 19, 20
Answer with a bare number; do not write a unit.

>>> test_result("RRIRKRPPRLPRPRPRPRFTPRP")
0.158
>>> test_result("RRIRGRPPRLPRPRPRPFKFPRP")
-0.11
>>> test_result("RRIRCRPPRLPRPRPRPLYWPRP")
-0.201
>>> test_result("RRIRERPPRLPRPRPRPPSPPRP")
-0.0326
>>> test_result("RRIRMRPPRLPRPRPRPESLPRP")
1.69

// `RRIRHRPPRLPRPRPRPEHMPRP` : shrunken log2 fold change value = -0.177

Record summary for `RRIRTRPPRLPRPRPRPYPEPRP` : reported shrunken log2 fold change = -0.817

For reference, reported shrunken log2 fold change for `RRIRSRPPRLPRPRPRPIRFPRP` stands at -0.964

// shrunken log2 fold change value for `RRIRWRPPRLPRPRPRPSCFPRP` : 0.486

# shrunken log2 fold change (sequence: `RRIRERPPRLPRPRPRPPIIPRP` ) is -0.562

The sequence listed as `RRIRVRPPRLPRPRPRPARRPRP` has a reported shrunken log2 fold change of 0.382

Looking up `RRIRMRPPRLPRPRPRPCEEPRP` , I see its shrunken log2 fold change listed as 0.0566

Looking up `RRIRSRPPRLPRPRPRPVQAPRP` , I see its shrunken log2 fold change listed as 0.0475

The sequence `RRIRLRPPRLPRPRPRPSCYPRP` showed shrunken log2 fold change equal to -0.164

Summary for this sequence, `RRIRCRPPRLPRPRPRPYDIPRP` : shrunken log2 fold change is 0.0852
